# experimental-target: mouse TMEM16A mutant I512A (Mus musculus, UniProt Q8BHY3, I512A)
# Construct: expressed in transfected cells; host or cells: HEK293T
# protocol-summary: Inside-out patch recording of 1PBC block, mutant I512A
# Type: cell-based
# test-conditions: 40 mV; 2 µM Ca2+
attribute-measured: IC50 (µM)
Respond numerically; units are µM and should not be typed.

Exam item: Tell me IC50 reported for N#Cc1c(C(F)(F)F)cc(O)n2c1nc1ccccc12
Marked response: 21.8

###

# experimental-target: mouse TMEM16A mutant I516A (Mus musculus, UniProt Q8BHY3, I516A)
# Construct: expressed in transfected cells; host or cells: HEK293T
# Sequence (Q8BHY3 1-960 I516A): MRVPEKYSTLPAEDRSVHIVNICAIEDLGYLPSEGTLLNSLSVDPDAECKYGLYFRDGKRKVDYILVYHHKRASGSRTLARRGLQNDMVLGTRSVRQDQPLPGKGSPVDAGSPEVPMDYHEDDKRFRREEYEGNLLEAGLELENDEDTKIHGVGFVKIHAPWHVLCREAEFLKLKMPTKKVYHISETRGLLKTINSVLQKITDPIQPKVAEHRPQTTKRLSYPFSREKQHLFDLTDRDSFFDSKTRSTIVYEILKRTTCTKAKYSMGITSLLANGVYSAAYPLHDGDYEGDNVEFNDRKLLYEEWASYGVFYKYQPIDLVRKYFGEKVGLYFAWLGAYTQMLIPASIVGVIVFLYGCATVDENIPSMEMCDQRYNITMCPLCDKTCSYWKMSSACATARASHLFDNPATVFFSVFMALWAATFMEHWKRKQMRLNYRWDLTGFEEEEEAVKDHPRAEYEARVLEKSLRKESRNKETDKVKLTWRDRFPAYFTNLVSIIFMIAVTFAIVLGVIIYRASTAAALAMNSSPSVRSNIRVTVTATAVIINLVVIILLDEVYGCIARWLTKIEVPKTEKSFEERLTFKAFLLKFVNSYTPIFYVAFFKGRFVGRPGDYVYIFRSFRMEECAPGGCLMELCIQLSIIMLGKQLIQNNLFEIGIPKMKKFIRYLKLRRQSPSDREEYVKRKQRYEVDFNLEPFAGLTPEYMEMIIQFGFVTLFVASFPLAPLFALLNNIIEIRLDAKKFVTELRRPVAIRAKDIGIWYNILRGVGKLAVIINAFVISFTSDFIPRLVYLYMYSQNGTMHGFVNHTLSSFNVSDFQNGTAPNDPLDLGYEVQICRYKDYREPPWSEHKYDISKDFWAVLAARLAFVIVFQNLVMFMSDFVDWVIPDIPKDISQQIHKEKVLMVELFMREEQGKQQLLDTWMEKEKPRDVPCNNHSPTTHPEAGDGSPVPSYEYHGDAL
# protocol-summary: Inside-out patch recording of 1PBC block, mutant I516A
# Type: cell-based
# test-conditions: 120 mV; 2 µM Ca2+
attribute-measured: pIC50
Notebook: values listed as pIC50 are -log10 of the concentration (mol/L).

Exam item: Give the observed pIC50 of N#Cc1c(C(F)(F)F)cc(O)n2c1nc1ccccc12 for mouse TMEM16A mutant I516A (Mus musculus, UniProt Q8BHY3, I516A).
Marked response: 5.34
